test system: CP256; test: qHTS profiling for inhibitors of Plasmodium falciparum proliferation (AID 504749); further: nearly all actives have a fitted effect of over 60% in size; settings: P. falciparum in erythrocytes, SYBR Green DNA, 72 h; series mostly up to 28.7 µM
Results filed as inconclusive are left out. Active and inactive are the calls of the source. The call rests on the fitted dose curve; in most records, active means well fitted inhibition curve with a large enough effect; inconclusive means small, poorly fitted or top-dose-only effect; inactive means flat fitted curve, though single readings scatter.
Outcome codes: active, inactive

> print(dat)
                                    molecule  category.label
 1     CC1(C)CCC(NC(=O)[C@@H](N)CCC(=O)O)CC1        inactive
 2         CN(C)CCCOc1nn(Cc2ccccc2)c2ccccc12        inactive
 3            CN1CCN(C(c2ccccc2)c2ccccc2)CC1        inactive
 4           O=C1CCC(c2ccc(-n3ccnc3)cc2)=NN1        inactive
 5                        Cc1ccc(O)c2ncccc12        inactive
 6        COc1cc(-c2ccc(=O)[nH]n2)ccc1OC(F)F          active
 7                       Oc1ccc(Cl)c2cccnc12        inactive
 8  Cc1c(C)n(Cc2ccccc2)c2ccc(C(=O)OCCN(C)C)cc12        inactive
 9                 CC(O)(P(=O)(O)O)P(=O)(O)O        inactive
10             CCOc1ccc2nc3cc(N)ccc3c(N)c2c1          active
11  COc1c(C)c2c(c(O)c1C/C=C(\C)CCC(=O)O)C(=O)OC2          active
12               CCN(CCCc1ccccc1)CCCc1ccccc1        inactive
13  CCC(C(=O)OCCN(CC)CC)c1ccccc1 (stereo unspecified)        inactive
14  O=S1(=O)c2cccc3cccc(c23)N1CCCN1CCN(c2ccc(F)cc2)CC1        inactive
15                            C1CCc2nnnn2CC1        inactive
16  COC(=O)[C@@H]1CC2=CC(=O)CC[C@]2(C)[C@@]23O[C@@H]2C[C@@]2(C)[C@@H](CC[C@@]24CCC(=O)O4)[C@H]13        inactive
17         CCCN1CCCC[C@H]1C(=O)Nc1c(C)cccc1C        inactive
18  O=C(CCCN1CCC(O)(c2ccc(Br)cc2)CC1)c1ccc(F)cc1        inactive
19  CC(=O)c1ccc2c(c1)N(CCCN1CCC(CCO)CC1)c1ccccc1S2        inactive
20          Cc1ccnc(NS(=O)(=O)c2ccc(N)cc2)n1        inactive
21          COc1c2occc2c(OC)c2c(=O)cc(C)oc12        inactive
22                    CCC(=O)c1c(O)cc(O)cc1O        inactive
23                  Cc1cc(=O)n(-c2ccccc2)n1C        inactive
24  CN1C2CCC1CC(OC(=O)c1c[nH]c3ccccc13)C2 (stereo unspecified)        inactive
25           Cc1c(C(C)C)c(=O)n(-c2ccccc2)n1C        inactive
26                   CCN(CC)C(=O)N1CCN(C)CC1        inactive
